testSystem: mTOR (Homo sapiens)
Construct: purchased Invitrogen
Sequence (P42345 1360-2549 limits assumed): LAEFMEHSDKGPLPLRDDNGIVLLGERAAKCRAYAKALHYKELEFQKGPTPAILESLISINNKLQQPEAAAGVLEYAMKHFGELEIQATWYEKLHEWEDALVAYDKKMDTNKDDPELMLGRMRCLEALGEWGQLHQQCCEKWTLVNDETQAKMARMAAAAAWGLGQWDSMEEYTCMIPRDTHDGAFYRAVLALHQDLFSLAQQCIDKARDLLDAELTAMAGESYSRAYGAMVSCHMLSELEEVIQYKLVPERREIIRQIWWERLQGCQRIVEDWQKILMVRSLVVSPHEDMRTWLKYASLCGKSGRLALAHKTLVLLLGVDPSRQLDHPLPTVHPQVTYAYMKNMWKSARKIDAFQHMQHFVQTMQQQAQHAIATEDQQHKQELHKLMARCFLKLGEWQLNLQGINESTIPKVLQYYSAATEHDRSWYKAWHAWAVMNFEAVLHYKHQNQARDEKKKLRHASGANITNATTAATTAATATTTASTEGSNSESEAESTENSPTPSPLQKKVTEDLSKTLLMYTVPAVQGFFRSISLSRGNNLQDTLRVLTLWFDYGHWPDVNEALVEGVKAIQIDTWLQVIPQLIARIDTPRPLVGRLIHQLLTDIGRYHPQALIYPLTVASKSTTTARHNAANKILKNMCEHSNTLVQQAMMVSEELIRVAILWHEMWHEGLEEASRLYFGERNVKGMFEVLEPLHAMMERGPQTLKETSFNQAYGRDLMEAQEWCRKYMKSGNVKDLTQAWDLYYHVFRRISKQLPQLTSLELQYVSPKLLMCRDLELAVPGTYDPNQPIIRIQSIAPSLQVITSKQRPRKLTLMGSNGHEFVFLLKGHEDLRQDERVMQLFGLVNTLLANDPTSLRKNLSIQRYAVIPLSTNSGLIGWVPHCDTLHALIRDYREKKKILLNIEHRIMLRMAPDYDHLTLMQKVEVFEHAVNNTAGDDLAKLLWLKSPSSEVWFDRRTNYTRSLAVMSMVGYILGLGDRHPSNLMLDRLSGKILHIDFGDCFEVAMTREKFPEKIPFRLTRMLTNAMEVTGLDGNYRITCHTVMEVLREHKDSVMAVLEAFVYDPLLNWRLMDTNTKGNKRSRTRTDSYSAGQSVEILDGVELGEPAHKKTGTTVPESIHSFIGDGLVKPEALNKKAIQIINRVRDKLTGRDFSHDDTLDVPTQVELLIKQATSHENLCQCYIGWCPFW
measurementNotes: mTOR kinase inhibition assay (radiometric or LanthaScreen TR-FRET)
Type: biochemical
runConditions: read-out: mTORC IC50
Would you mind telling me the reported IC50 of each entry?

Data request, read-out IC50, for CN1CCN(c2cnc3ccc(-c4ccc5oc(N)nc5c4)cc3n2)CC1
> 10 µM

Data request, read-out IC50, for Nc1nc2cc(-c3ccc4ncn(C5CCOCC5)c(=O)c4c3)ccc2o1
> 10 µM

Data request, read-out IC50, for C[C@H]1CN(C2CN(c3cnc4ccc(-c5ccc6oc(N)nc6c5)cc4n3)C2)CCN1
> 10 µM

Data request, read-out IC50, for Nc1nc2cc(-c3cccc4[nH]nc(N)c34)ccc2o1
> 10 µM

Data request, read-out IC50, for Nc1nc2cc(-c3ccc4ncc(N5CCN(C(=O)[C@@H](N)CO)CC5)nc4c3)ccc2o1
< 10 µM

Data request, read-out IC50, for CC(=O)Nc1ncc(-c2ccc3oc(N)nc3c2)s1
< 10 µM

Data request, read-out IC50, for CN1CCN(C(=O)C2CN(c3cnc4ccc(-c5ccc6oc(N)nc6c5)cc4n3)C2)CC1
< 10 µM

Data request, read-out IC50, for Nc1nc2cc(-c3ccc4nccn4c3)ccc2o1
< 10 µM

Data request, read-out IC50, for Nc1nc2cc(-c3ccn4ncc(-c5ccncc5)c4n3)ccc2o1
< 0.1 µM

Data request, read-out IC50, for Nc1nc2cc(-c3ccc4nc(N)sc4c3)ccc2o1
< 10 µM

Data request, read-out IC50, for CC(=O)Nc1nc2ccc(-c3ccc4nccc(-c5ccncc5)c4c3)cc2s1
> 10 µM

Data request, read-out IC50, for N#Cc1cnc2ccc(-c3ccc4oc(N)nc4c3)cc2c1-c1ccncc1
< 0.1 µM

Data request, read-out IC50, for Cn1cc(-c2ccnc3ccc(-c4ccc5oc(N)nc5c4)cc23)cn1
< 1 µM

Data request, read-out IC50, for Nc1nc2cc(-c3ccc4ncc(OC5CCOCC5)nc4c3)ccc2o1
< 10 µM

Data request, read-out IC50, for Nc1nc2cc(-c3ccc4ncc(N5CCC(n6ccnc6)CC5)nc4c3)ccc2o1
< 10 µM

Data request, read-out IC50, for Cc1nc2ccc(-c3ccc4oc(N)nc4c3)nn2c1-c1ccncc1
< 1 µM

Data request, read-out IC50, for Nc1nc2cc(-c3ccc4ncc(C(=O)N5CCOCC5)n4c3)ccc2o1
< 10 µM

Data request, read-out IC50, for Nc1ncnc2ccc(-c3ccc4nccc(-c5ccncc5)c4c3)cc12
> 10 µM

Data request, read-out IC50, for O=C(c1cnc2ccc(-c3cnc(Cl)c(NS(=O)(=O)c4ccc(F)cc4F)c3)cn12)N1CCOCC1
< 1 µM

Data request, read-out IC50, for CS(=O)(=O)N1CCN(Cc2cc3nc(-c4ccc5oc(N)nc5c4)nc(N4CCOCC4)c3s2)CC1
< 1 µM

Data request, read-out IC50, for CN1CCN(c2ccc(-c3cnc4ccc(-c5ccc6oc(N)nc6c5)cn34)cn2)CC1
> 10 µM

Data request, read-out IC50, for Nc1nc2cc(-c3ccc4ncn(-c5ccccc5)c4c3)ccc2o1
> 10 µM

Data request, read-out IC50, for Nc1nc2cc(-c3ccc4ncc(N5CCOCC5)nc4c3)ccc2o1
< 10 µM

Data request, read-out IC50, for Cc1nccn1C1CN(c2cnc3ccc(-c4ccc5oc(N)nc5c4)cc3n2)C1
< 10 µM

Data request, read-out IC50, for Cn1c(=O)n(-c2ccc(C(C)(C)C#N)cc2)c2c3cc(-c4ccc5oc(N)nc5c4)ccc3ncc21
< 0.1 µM

Data request, read-out IC50, for Nc1nc2cc(-c3ccc4ncc(N5CC(N6CC[C@H](O)C6)C5)nc4c3)ccc2o1
> 10 µM

Data request, read-out IC50, for N#Cc1cnc2ccc(-c3ccc4oc(N)nc4c3)cc2c1
< 10 µM

Data request, read-out IC50, for Cc1ccn(C2CN(c3cnc4ccc(-c5ccc6oc(N)nc6c5)cc4n3)C2)n1
> 10 µM

Data request, read-out IC50, for CN1CCN(C2CN(c3cnc4ccc(-c5ccc6oc(N)nc6c5)cc4n3)C2)CC1
< 10 µM

Data request, read-out IC50, for CCOC(=O)N1CCN(c2cnc3ccc(-c4ccc5oc(N)nc5c4)cc3n2)CC1
< 10 µM

Data request, read-out IC50, for CS(=O)(=O)N1CCN(C2CCN(c3cnc4ccc(-c5ccc6oc(N)nc6c5)cc4n3)CC2)CC1
< 10 µM

Data request, read-out IC50, for Nc1nc2cc(-c3ccc4ncc(N5CCNC(C(F)(F)F)C5)nc4c3)ccc2o1 (centres unmarked)
< 1 µM

Data request, read-out IC50, for Nc1nc2cc(-c3ccc4ncc(-c5ccc6nc(N)oc6c5)n4c3)ccc2o1
> 10 µM

Data request, read-out IC50, for Nc1nc2cc(-c3ccc4nc(N)oc4c3)ccc2o1
< 10 µM

Data request, read-out IC50, for CC(=O)N1CCC(Nc2ncnc3ccc(-c4ccc5oc(N)nc5c4)cc23)CC1
< 1 µM

----------
testSystem: PI3K β (p110β/p85α) (Homo sapiens, UniProt P42338)
Construct: purchased Upstate / Millipore Corporation
Sequence (P42338 whole entry): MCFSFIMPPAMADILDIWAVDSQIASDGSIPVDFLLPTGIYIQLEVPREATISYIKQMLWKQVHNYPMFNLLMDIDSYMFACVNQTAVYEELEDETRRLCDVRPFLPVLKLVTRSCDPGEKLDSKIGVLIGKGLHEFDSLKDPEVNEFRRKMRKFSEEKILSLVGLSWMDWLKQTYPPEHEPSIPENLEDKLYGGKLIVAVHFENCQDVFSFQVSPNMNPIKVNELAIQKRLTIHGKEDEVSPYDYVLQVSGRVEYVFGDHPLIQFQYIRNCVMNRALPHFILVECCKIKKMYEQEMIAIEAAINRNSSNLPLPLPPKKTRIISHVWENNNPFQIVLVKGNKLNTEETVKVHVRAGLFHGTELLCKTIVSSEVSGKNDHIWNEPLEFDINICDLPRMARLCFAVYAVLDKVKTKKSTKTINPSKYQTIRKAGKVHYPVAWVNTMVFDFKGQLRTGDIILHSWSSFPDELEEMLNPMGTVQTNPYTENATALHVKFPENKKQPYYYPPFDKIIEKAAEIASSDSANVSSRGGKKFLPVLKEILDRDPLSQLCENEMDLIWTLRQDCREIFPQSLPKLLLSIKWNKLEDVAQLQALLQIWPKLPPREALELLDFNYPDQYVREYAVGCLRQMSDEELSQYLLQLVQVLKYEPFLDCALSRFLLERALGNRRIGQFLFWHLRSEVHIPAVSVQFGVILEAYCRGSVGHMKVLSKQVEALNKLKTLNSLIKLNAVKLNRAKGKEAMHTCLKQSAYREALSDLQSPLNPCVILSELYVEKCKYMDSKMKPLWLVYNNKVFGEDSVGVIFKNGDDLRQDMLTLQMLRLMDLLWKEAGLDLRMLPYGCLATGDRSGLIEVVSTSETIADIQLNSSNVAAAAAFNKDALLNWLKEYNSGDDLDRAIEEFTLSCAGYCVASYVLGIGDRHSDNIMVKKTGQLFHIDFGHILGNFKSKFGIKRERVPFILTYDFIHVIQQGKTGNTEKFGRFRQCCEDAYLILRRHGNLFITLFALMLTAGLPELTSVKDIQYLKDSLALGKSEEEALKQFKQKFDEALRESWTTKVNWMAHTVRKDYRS
Sequence (P27986 whole entry partner): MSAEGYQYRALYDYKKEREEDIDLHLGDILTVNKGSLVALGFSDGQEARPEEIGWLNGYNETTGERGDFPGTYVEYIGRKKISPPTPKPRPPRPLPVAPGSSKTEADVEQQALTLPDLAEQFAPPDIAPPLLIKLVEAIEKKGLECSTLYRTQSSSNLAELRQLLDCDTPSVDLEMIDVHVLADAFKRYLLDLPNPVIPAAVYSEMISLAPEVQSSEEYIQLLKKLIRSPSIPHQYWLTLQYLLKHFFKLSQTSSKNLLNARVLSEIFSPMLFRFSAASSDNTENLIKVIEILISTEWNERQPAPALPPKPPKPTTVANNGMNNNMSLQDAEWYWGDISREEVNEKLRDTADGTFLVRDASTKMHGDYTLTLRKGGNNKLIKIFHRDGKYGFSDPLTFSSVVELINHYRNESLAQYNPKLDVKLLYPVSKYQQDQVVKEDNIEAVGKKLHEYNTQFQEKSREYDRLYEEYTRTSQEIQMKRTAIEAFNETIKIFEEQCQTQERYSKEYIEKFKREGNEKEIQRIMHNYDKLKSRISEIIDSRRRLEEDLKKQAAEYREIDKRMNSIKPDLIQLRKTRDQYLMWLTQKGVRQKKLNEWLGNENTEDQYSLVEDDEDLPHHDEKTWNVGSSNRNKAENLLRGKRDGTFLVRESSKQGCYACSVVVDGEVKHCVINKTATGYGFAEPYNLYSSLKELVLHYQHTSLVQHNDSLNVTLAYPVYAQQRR
measurementNotes: PI 3-Kinase (human) HTRF assay, PI3K β
Format: biochemical
runConditions: read-out: PI3K β IC50
Would you mind telling me the reported IC50 of each entry?

Data request, read-out IC50, for Cc1c(-c2ccc3ncc(C(=O)N4CCOCC4)n3c2)ccc2oc(N)nc12 [Compound 369]
> 10 µM

Data request, read-out IC50, for O=C(c1cnc2ccc(-c3cncc(NS(=O)(=O)c4ccc(F)cc4F)c3)cn12)N1CCOCC1 [Compound 425]
> 10 µM

Data request, read-out IC50, for Nc1n[nH]c2c(-c3ccc4ncc(C(=O)N5CCOCC5)n4c3)cccc12 [Compound 490]
> 10 µM

Data request, read-out IC50, for Nc1nc2cc(-c3ccc4ncc(N5CCOCC5)nc4c3)ccc2s1 [Compound 116]
< 1 µM

Data request, read-out IC50, for Nc1nc2cc(-c3ccc4ncn(C5CCOCC5)c4c3)ccc2o1 [Compound 48]
> 10 µM

Data request, read-out IC50, for CS(=O)(=O)N1CCN(C2CN(c3cnc4ccc(-c5ccc6oc(N)nc6c5)cc4n3)C2)CC1 [Compound 328]
< 10 µM

Data request, read-out IC50, for Nc1nc2cc(-c3ccc4ncc(C(=O)N5CCOCC5)n4c3)cc(F)c2o1 [Compound 360]
< 1 µM

Data request, read-out IC50, for Nc1nc2cc(-c3ccc4ncc(C(=O)N5CCC(F)(F)CC5)n4c3)ccc2o1 [Compound 501]
> 10 µM

Data request, read-out IC50, for Nc1nc2cc(-c3cn4c(-c5cn[nH]c5)cnc4cn3)ccc2o1 [Compound 69]
< 10 µM

Data request, read-out IC50, for Nc1noc2c(-c3ccc4ncc(C(=O)N5CCOCC5)n4c3)cccc12 [Compound 491]
> 10 µM

Data request, read-out IC50, for Nc1nc2cc(-c3ccc4ncc(-c5ccncc5)n4n3)ccc2o1 [Compound 10]
< 1 µM

Data request, read-out IC50, for CN1CCN(C(=O)c2cnc3ccc(-c4ccc5nc(N)sc5c4)cn23)CC1 [Compound 146]
< 10 µM

Data request, read-out IC50, for CN1CCN(c2cnc3ccc(-c4ccc5nc(N)oc5c4)cc3n2)CC1 [Compound 118]
< 0.1 µM

Data request, read-out IC50, for COC(=O)N1CCN(c2cnc3ccc(-c4ccc5oc(N)nc5c4)cc3n2)CC1 [Compound 193]
< 1 µM

Data request, read-out IC50, for Nc1nc2cc(-c3ccc4ncc(-c5cn[nH]c5)n4n3)ccc2o1 [Compound 59]
< 0.1 µM

Data request, read-out IC50, for Nc1nc2cc(-c3ccc4ncc(N5CC(N)C5)nc4c3)ccc2o1 [Compound 367]
< 1 µM

Data request, read-out IC50, for Nc1nc2cc(-c3cc4nccc(-c5ccncc5)c4s3)ccc2o1 [Compound 14]
> 10 µM

Data request, read-out IC50, for Nc1nc2cc(-c3ccc4ncc(C(=O)N5CCOCC5)n4c3)c(Cl)cc2o1 [Compound 370]
> 10 µM

----------
testSystem: PI3K δ (Homo sapiens, UniProt O00329)
Construct: purchased Upstate / Millipore Corporation
Sequence (O00329 whole entry): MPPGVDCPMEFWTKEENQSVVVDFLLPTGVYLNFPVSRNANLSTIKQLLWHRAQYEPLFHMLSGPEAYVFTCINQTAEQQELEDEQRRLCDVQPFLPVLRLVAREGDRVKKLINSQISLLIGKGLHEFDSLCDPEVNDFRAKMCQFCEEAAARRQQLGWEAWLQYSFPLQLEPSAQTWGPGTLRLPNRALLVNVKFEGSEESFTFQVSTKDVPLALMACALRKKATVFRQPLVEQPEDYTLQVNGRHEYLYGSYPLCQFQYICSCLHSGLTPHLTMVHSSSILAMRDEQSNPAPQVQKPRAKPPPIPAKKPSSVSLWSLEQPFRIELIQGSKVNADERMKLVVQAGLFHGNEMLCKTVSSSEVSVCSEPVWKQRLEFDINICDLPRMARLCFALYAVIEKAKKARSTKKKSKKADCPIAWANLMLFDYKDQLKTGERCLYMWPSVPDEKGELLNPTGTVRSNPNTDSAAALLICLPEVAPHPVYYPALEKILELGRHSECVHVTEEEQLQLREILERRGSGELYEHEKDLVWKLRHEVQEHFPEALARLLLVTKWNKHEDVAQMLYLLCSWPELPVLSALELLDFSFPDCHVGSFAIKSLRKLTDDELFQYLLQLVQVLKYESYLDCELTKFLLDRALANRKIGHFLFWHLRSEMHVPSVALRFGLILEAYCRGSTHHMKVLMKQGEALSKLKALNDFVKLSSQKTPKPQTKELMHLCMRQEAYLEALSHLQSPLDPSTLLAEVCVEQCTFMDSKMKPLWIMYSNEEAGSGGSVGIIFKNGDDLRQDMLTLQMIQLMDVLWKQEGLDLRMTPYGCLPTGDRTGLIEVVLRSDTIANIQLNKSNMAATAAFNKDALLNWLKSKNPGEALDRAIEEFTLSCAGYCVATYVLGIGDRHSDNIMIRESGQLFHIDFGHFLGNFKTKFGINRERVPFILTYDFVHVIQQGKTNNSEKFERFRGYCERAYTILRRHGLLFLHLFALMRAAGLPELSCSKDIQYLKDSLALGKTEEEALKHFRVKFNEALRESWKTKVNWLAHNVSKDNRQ
Sequence (P27986 whole entry partner): as the sequence (P27986 whole entry partner) above
measurementNotes: PI 3-Kinase (human) HTRF assay, PI3K δ
Format: biochemical
runConditions: Table 4 (PI3K α inhibitors); read-out: PI3K δ IC50
Would you mind telling me the reported IC50 of each entry?

Data request, read-out IC50, for Cc1nccn1C1CN(c2cnc3ccc(-c4ccc5oc(N)nc5c4)nc3c2)C1
< 1000 nM

Data request, read-out IC50, for CN1CCN(C2CN(c3cnc4ccc(-c5ccc6oc(N)nc6c5)nc4n3)C2)CC1
< 1000 nM

Data request, read-out IC50, for Nc1nc2cc(-c3ccc4ncc(C5=CCOCC5)nc4n3)ccc2o1
> 10000 nM

Data request, read-out IC50, for CC(C)(N)C(=O)N1CCN(c2cnc3ccc(-c4ccc5oc(N)nc5c4)nc3c2)CC1
< 1000 nM

Data request, read-out IC50, for Nc1nc2cc(-c3ccc4ncc(N5CC(N6CCN(CCO)CC6)C5)cc4n3)ccc2o1
< 1000 nM

Data request, read-out IC50, for Nc1nc2cc(-c3ccc4ncc(N5CCOCC5)cc4n3)ccc2o1
> 10000 nM

Data request, read-out IC50, for CC(C)(N)C(=O)N1CCN(c2ccc3ncc(-c4ccc5oc(N)nc5c4)cc3n2)CC1
> 10000 nM

Data request, read-out IC50, for Nc1nc2cc(-c3ccc4ncc(N5CCOCC5)nc4n3)ccc2o1
> 10000 nM

Data request, read-out IC50, for C[C@H]1CN(C2CN(c3cnc4ccc(-c5ccc6oc(N)nc6c5)nc4n3)C2)CCN1C
< 1000 nM

Data request, read-out IC50, for CN1CCN(c2ccc3ncc(-c4ccc5oc(N)nc5c4)cc3n2)CC1
> 10000 nM

Data request, read-out IC50, for Nc1nc2cc(-c3ccc4ncc(N5CC(N6CCN(CC7CC7)CC6)C5)cc4n3)ccc2o1
< 1000 nM

Data request, read-out IC50, for CN1CCN(C2CN(c3cnc4ccc(-c5ccc6oc(N)nc6c5)nc4c3)C2)CC1
< 1000 nM

Data request, read-out IC50, for Nc1nc2cc(-c3ccc4nc(N5CCOCC5)cnc4n3)ccc2o1
> 10000 nM

Data request, read-out IC50, for CCOC(=O)N1CCN(c2cnc3ccc(-c4ccc5oc(N)nc5c4)nc3n2)CC1
< 1000 nM

Data request, read-out IC50, for CC(C)N1CCN(C2CN(c3cnc4ccc(-c5ccc6oc(N)nc6c5)nc4n3)C2)CC1
> 10000 nM

Data request, read-out IC50, for C[C@@H]1CN(C2CN(c3cnc4ccc(-c5ccc6oc(N)nc6c5)nc4c3)C2)CCN1
< 1000 nM

Data request, read-out IC50, for Nc1nc2cc(-c3ccc4ncc(N5CCC(F)(F)CC5)nc4n3)ccc2o1
> 10000 nM

Cited source for all entries: patent US20150087627A1
